EXPERIMENTAL TARGET: T1, human IL-1α (human, UniProt P01583 113-271)
T1 sequence (looked up): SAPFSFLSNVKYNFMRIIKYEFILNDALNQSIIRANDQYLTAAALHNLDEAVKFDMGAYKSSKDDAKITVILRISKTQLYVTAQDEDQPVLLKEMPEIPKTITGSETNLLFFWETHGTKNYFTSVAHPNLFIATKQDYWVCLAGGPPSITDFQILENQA
ASSAY OVERVIEW: cell-based or functional assay
Documented IL-1α IC50 across a set of binders
State the value with its unit after it.

[[record]]
binder = "ABT2-108-620x/ABT1-95-A3 hu IgG1/K mut (234; 235) (bispecific antibody, V domains shown, hu IgG1/K mut (234)) VH: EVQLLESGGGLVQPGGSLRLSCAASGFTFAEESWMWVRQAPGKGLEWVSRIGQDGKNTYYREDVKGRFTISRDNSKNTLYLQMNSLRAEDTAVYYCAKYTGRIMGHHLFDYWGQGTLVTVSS VL: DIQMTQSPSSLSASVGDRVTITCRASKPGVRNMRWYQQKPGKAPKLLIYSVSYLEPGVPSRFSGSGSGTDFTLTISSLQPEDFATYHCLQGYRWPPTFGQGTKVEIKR"
assay_readout = "IL-1α IC50"
result = "0.002 nM"

[[record]]
binder = "ABT2-65/ABT1-122 hu IgG1/K wt (bispecific antibody, V domains shown) VH: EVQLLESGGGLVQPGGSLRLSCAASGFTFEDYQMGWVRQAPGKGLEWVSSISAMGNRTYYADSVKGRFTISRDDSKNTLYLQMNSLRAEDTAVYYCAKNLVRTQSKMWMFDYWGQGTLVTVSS VL: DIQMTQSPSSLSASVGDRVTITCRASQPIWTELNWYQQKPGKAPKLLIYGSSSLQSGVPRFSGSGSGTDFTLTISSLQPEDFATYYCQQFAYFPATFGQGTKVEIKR"
assay_readout = "IL-1α IC50"
result = "2000 nM"


Please look at the following binder next.
Task: Any idea what its IL-1α IC50 is? The binder is ABT2-65-17/ABT1-141-25 hu IgG1/K wt (bispecific antibody, V domains shown) VH: EVQLLESGGGLVQPGGSLRLSCVASGFTFEDYQMGWVRQAPGKGLEWVSSISAMGNRTYYADSVKGRFTISRDDSKNTLYLQMNSLRAEDTAVYYCAQNLVRLGRSRWMFDYWGQGTLVTVSS VL: DIQMTQSPSSLSASVGDRVTITCRASQWIQKQLAWYQQKPGKAPKLLIYSSSYLQSGVPSRFSGSGSGTDFTLTISSLQPEDFATYYCQQHLRVPMTFGQGTKVEIKR
Result: 400 nM
